System: CCRF-CEM
test.name: Inhibition of Human immunodeficiency virus (HIV)-2 ROD strain induced cytopathicity in CEM cell line
Format: functional, cell-based
parameter.measured: EC50

Quick note, EC50 for Nc1cc(O)ncn1 landed at > 100 µg/mL

EC50 for Nc1ncnc2c1ncn2CCOCP(=O)(O)O [ADEFOVIR] is 2.5 µg/mL

For Nc1cc(OCCOCP(=O)(O)O)nc(N)n1 the molecule record lists EC50 as 0.43 µg/mL

// EC50 value for Nc1cc(OCCOCP(=O)(O)O)ncn1 : > 100 µg/mL

---
Looking up Nc1cc(=O)n(CCOCP(=O)(O)O)cn1 , I see its EC50 listed as > 100 µg/mL

Per the records, this molecule ( CN(C)c1cc(O)nc(N)n1 ) has EC50 equal to > 100 µg/mL

# EC50 of Nc1nc(OCCOCP(=O)(O)O)cc(=O)n1CCOCP(=O)(O)O = > 100 µg/mL

GET /value?item= Nc1nc(NC2CC2)cc(OCCOCP(=O)(O)O)n1 &field=EC50 returns > 100 µg/mL

# EC50 (molecule: Cc1cc(OCCOCP(=O)(O)O)nc(N)n1 ) is > 100 µg/mL

CSc1nc(N)cc(OCCOCP(=O)(O)O)n1 has a reported EC50 of 33 µg/mL

Reported EC50 of Nc1nc(OCCOCP(=O)(O)O)cc(OCCOCP(=O)(O)O)n1 : 80 µg/mL

Noted for Nc1nc(O)cc(NC2CC2)n1 : its EC50 reads > 100 µg/mL

GET /value?item= Nc1nc(NC2CC2)cc(=O)n1CCOCP(=O)(O)O &field=EC50 returns > 100 µg/mL
